biological target: JAK 3 (Homo sapiens, UniProt P52333); assay: Biochemical potency on JAK3, TR-FRET LANCE Ultra kinase assay (examples 1-99); details: ATP at Km (0.2 μM), read-out: JAK3 inhibitory activity (pIC50 class) (converted)
Sequence (P52333 whole entry): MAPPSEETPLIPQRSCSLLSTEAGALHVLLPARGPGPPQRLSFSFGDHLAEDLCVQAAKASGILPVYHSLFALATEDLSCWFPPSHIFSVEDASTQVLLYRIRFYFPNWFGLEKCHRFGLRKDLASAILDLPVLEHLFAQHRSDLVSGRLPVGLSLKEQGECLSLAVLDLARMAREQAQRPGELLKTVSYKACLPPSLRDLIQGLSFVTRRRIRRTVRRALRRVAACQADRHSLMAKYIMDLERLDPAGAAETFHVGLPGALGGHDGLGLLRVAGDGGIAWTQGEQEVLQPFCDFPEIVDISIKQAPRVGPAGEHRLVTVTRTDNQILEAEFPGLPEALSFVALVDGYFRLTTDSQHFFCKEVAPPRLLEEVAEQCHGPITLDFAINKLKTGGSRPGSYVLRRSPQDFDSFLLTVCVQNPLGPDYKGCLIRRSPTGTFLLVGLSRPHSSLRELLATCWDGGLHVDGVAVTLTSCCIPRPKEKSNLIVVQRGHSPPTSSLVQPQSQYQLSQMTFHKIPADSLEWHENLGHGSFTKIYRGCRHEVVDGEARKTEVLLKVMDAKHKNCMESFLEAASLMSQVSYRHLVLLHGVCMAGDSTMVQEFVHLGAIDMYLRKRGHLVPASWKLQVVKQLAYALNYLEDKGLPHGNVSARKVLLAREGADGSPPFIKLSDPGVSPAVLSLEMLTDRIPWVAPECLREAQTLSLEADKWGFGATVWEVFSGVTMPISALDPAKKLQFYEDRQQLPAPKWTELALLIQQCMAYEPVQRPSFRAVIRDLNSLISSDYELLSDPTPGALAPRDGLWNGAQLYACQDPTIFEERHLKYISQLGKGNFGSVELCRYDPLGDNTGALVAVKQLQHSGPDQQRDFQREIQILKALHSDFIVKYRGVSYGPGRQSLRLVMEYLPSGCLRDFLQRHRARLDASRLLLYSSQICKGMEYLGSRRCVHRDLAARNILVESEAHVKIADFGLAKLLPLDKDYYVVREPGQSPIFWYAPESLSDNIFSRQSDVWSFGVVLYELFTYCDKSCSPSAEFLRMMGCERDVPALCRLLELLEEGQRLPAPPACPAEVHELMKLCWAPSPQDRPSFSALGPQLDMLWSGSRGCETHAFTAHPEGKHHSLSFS

{"molecule_smiles": "Cc1nn(-c2cc(SC3COC3)ccc2OC(F)F)c2cc(-c3cnn4cccnc34)ncc12", "system_name": "JAK 3 (Homo sapiens, UniProt P52333)", "IC50": "≤ 5.01 nM"}
{"molecule_smiles": "COCCSc1ccc(OC(F)F)c(-n2nc(C)c3cnc(Nc4ncc[nH]c4=O)cc32)c1", "system_name": "JAK 3 (Homo sapiens, UniProt P52333)", "IC50": "≤ 5.01 nM"}
{"molecule_smiles": "CSc1ccc(Cl)cc1-n1nc(C)c2cnc(-c3cnn4cccnc34)cc21", "system_name": "JAK 3 (Homo sapiens, UniProt P52333)", "IC50": "5.01 to 50.1 nM"}
{"molecule_smiles": "Cc1nn(-c2cc(S(=O)(=O)CCO)ccc2OC(F)F)c2cc(-c3cnn4cccnc34)ncc12", "system_name": "JAK 3 (Homo sapiens, UniProt P52333)", "IC50": "≤ 5.01 nM"}
{"molecule_smiles": "CNC(=O)CNc1nc(-c2cnn3cccnc23)cc2c1cnn2-c1cc(Cl)ccc1OC", "system_name": "JAK 3 (Homo sapiens, UniProt P52333)", "IC50": "5.01 to 50.1 nM"}
{"molecule_smiles": "CN(C)Cc1nn(-c2cc(Cl)ccc2OC(F)F)c2cc(-c3cnn4cccnc34)ncc12", "system_name": "JAK 3 (Homo sapiens, UniProt P52333)", "IC50": "5.01 to 50.1 nM"}
{"molecule_smiles": "CNc1nn(-c2cc(Cl)ccc2OC)c2cc(-c3cnn4cccnc34)ncc12", "system_name": "JAK 3 (Homo sapiens, UniProt P52333)", "IC50": "≤ 5.01 nM"}
{"molecule_smiles": "COc1ccc(S(=O)(=O)NCCO)cc1-n1nc(C)c2cnc(-c3cnn4cccnc34)cc21", "system_name": "JAK 3 (Homo sapiens, UniProt P52333)", "IC50": "5.01 to 50.1 nM"}
{"molecule_smiles": "COc1ccc(F)cc1-n1nc(C)c2cnc(-c3cnn4cccnc34)cc21", "system_name": "JAK 3 (Homo sapiens, UniProt P52333)", "IC50": "5.01 to 50.1 nM"}
{"molecule_smiles": "COc1ccc(F)cc1-n1nc(C(=O)NCCCN(C)C)c2cnc(Nc3ncc[nH]c3=O)cc21", "system_name": "JAK 3 (Homo sapiens, UniProt P52333)", "IC50": "5.01 to 50.1 nM"}
{"molecule_smiles": "NC1CN(Cc2nn(-c3cc(Cl)ccc3OC(F)F)c3cc(-c4cnn5cccnc45)ncc23)C1", "system_name": "JAK 3 (Homo sapiens, UniProt P52333)", "IC50": "5.01 to 50.1 nM"}
{"molecule_smiles": "COc1ccc(Cl)cc1-n1nc(NC(C)=O)c2cnc(-c3cnn4cccnc34)cc21", "system_name": "JAK 3 (Homo sapiens, UniProt P52333)", "IC50": "≤ 5.01 nM"}
{"molecule_smiles": "Cc1nn(-c2cc(Cl)ccc2CO)c2cc(-c3cnn4cccnc34)ncc12", "system_name": "JAK 3 (Homo sapiens, UniProt P52333)", "IC50": "5.01 to 50.1 nM"}
{"molecule_smiles": "COc1ccc(NS(C)(=O)=O)cc1-n1nc(NCCN(C)C)c2cnc(-c3cnn4cccnc34)cc21", "system_name": "JAK 3 (Homo sapiens, UniProt P52333)", "IC50": "5.01 to 50.1 nM"}
{"molecule_smiles": "COc1ccc(Cl)cc1-n1ncc2c(N(C)C)nc(-c3cnn4cccnc34)cc21", "system_name": "JAK 3 (Homo sapiens, UniProt P52333)", "IC50": "5.01 to 50.1 nM"}
{"molecule_smiles": "COc1ccc(Cl)cc1-n1nc(N2CCN(C(C)=O)CC2)c2cnc(-c3cnn4cccnc34)cc21", "system_name": "JAK 3 (Homo sapiens, UniProt P52333)", "IC50": "5.01 to 50.1 nM"}
{"molecule_smiles": "COc1ccc(S(C)(=O)=O)cc1-n1nc(C(=O)NCCN(C)C)c2cnc(-c3cnn4cccnc34)cc21", "system_name": "JAK 3 (Homo sapiens, UniProt P52333)", "IC50": "5.01 to 50.1 nM"}

###

Overview of reported IC50 across a group of compounds:
target: UniProtKB O60674; experiment: Biochemical potency on JAK2, TR-FRET LANCE Ultra kinase assay (examples 1-99); conditions: ATP at Km (0.7 μM), read-out: JAK2 inhibitory activity (pIC50 class) (converted)
Sequence (O60674 whole entry): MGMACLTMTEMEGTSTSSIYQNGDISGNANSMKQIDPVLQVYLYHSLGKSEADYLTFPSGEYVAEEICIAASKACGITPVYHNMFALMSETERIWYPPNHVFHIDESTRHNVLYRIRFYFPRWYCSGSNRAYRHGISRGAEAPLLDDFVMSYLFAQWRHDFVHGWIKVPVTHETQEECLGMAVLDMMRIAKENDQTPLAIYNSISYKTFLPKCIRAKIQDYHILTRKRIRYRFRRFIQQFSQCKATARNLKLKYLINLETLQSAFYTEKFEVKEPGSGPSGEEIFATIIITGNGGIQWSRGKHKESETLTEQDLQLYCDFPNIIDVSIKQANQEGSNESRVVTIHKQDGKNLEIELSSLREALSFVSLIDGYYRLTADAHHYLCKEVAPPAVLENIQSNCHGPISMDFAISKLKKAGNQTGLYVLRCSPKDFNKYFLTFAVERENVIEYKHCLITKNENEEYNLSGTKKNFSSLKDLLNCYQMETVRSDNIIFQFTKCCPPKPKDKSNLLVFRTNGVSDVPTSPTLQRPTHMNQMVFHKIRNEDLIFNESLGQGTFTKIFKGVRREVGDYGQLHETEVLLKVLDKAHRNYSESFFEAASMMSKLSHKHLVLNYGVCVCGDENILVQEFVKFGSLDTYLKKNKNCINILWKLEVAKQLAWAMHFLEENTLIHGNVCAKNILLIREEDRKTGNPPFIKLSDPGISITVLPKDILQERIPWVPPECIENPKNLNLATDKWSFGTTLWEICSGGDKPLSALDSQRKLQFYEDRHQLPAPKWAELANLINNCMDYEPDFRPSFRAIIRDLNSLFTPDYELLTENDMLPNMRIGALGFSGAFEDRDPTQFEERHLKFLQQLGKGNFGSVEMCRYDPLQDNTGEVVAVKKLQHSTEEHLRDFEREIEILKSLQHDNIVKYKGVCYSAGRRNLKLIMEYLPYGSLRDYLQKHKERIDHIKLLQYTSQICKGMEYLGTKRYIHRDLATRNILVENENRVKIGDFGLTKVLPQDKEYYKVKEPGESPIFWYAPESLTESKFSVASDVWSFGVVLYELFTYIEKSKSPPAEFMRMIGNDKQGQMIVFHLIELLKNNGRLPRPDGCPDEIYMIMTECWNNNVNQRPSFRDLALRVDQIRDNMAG
value_type: IC50

{"molecule_smiles": "CNc1nn(-c2cc(Cl)ccc2OC)c2cc(-c3cnn4cccnc34)ncc12", "value_type": "IC50", "val": "≤ 5.01 nM"}
{"molecule_smiles": "N#CCc1nn(-c2cc(Cl)ccc2OC(F)F)c2cc(-c3cnn4cccnc34)ncc12", "value_type": "IC50", "val": "≤ 5.01 nM"}
{"molecule_smiles": "COc1ccc(Cl)cc1-n1ncc2c(O)nc(-c3cnn4cccnc34)cc21", "value_type": "IC50", "val": "≤ 5.01 nM"}
{"molecule_smiles": "COc1ccc(F)cc1-n1nc(C(=O)NCCCN(C)C)c2cnc(-c3cnn4cccnc34)cc21", "value_type": "IC50", "val": "5.01 to 50.1 nM"}
{"molecule_smiles": "COc1ccc(Cl)cc1-n1nc(N2CC(CO)C2)c2cnc(-c3cnn4cccnc34)cc21", "value_type": "IC50", "val": "5.01 to 50.1 nM"}
{"molecule_smiles": "COc1ccc(Cl)cc1-n1nc(C(=O)N[C@H]2C[C@@H](O)C2)c2cnc(-c3cnn4cccnc34)cc21", "value_type": "IC50", "val": "5.01 to 50.1 nM"}
{"molecule_smiles": "Cc1nn(-c2cc(Br)ccc2OC(F)F)c2cc(-c3cnn4cccnc34)ncc12", "value_type": "IC50", "val": "≤ 5.01 nM"}
{"molecule_smiles": "COc1ccc(C(F)F)cc1-n1nc(C)c2cnc(-c3cnn4cccnc34)cc21", "value_type": "IC50", "val": "≤ 5.01 nM"}
{"molecule_smiles": "CNC(=O)CSc1ccc(OC(F)F)c(-n2nc(C)c3cnc(-c4cnn5cccnc45)cc32)c1", "value_type": "IC50", "val": "5.01 to 50.1 nM"}
{"molecule_smiles": "Cc1nn(-c2cc(SCC(N)=O)ccc2OC(F)F)c2cc(-c3cnn4cccnc34)ncc12", "value_type": "IC50", "val": "≤ 5.01 nM"}
{"molecule_smiles": "COc1cc(O)c(F)cc1-n1nc(C(=O)NCCCN(C)C)c2cnc(-c3cnn4cccnc34)cc21", "value_type": "IC50", "val": "5.01 to 50.1 nM"}
{"molecule_smiles": "CSc1ccc(OC(F)F)c(-n2nc(C)c3cnc(-c4cnn5cccnc45)cc32)c1", "value_type": "IC50", "val": "≤ 5.01 nM"}
{"molecule_smiles": "Cc1nn(-c2cc(C(=O)Nc3nccs3)ccc2OC(F)F)c2cc(-c3cnn4cccnc34)ncc12", "value_type": "IC50", "val": "5.01 to 50.1 nM"}
{"molecule_smiles": "COc1cc(O)c(Cl)cc1-n1nc(C)c2cnc(-c3cnn4cccnc34)cc21", "value_type": "IC50", "val": "≤ 5.01 nM"}
{"molecule_smiles": "COc1ccc(S(=O)(=O)NCCN2CCN(C)CC2)cc1-n1nc(C)c2cnc(-c3cnn4cccnc34)cc21", "value_type": "IC50", "val": "5.01 to 50.1 nM"}
{"molecule_smiles": "CN(C)Cc1nn(-c2cc(Cl)ccc2OC(F)F)c2cc(-c3cnn4cccnc34)ncc12", "value_type": "IC50", "val": "5.01 to 50.1 nM"}

###

Overview of reported IC50 across a group of compounds:
Target: UniProtKB P52333
Assay: Biochemical potency on JAK3, TR-FRET LANCE Ultra kinase assay (examples 1-99)
Settings: ATP at Km (0.2 μM), read-out: JAK3 inhibitory activity (pIC50 class) (converted)
Procedure: The objective of this study was to assess the capability of compounds to inhibit all 4 JAK isoforms activity in a cell-free environment. Assay for JAK 1, JAK 2, JAK 3 and TYK2 were performed by Time-resolved fluorescence resonance energy transfer (TR-FRET) technology. It consists in the interaction of two labelled binding partners detected by the energy transfer from an excited donor to an acceptor dye and measurement of light emission by the acceptor dye. LANCE Ultra kinase assay was used. […]
value_type: IC50

{"compound": "CSc1ccc(OC(F)F)c(-n2nc(NCCCN(C)C)c3cnc(-c4cnn5cccnc45)cc32)c1 [Example 46]", "value_type": "IC50", "val": "≤ 5.01 nM"}
{"compound": "COc1ccc(Cl)cc1-n1nc(C(=O)N[C@H]2C[C@H](N(C)C)C2)c2cnc(-c3cnn4cccnc34)cc21 [Example 80]", "value_type": "IC50", "val": "5.01 to 50.1 nM"}
{"compound": "CNCc1nn(-c2cc(S(C)(=O)=O)ccc2OC)c2cc(-c3cnn4cccnc34)ncc12 [Example 89]", "value_type": "IC50", "val": "> 50.1 nM"}
{"compound": "COc1ccc(Cl)cc1-n1nc(OC)c2cnc(-c3cnn4cccnc34)cc21 [Example 50]", "value_type": "IC50", "val": "5.01 to 50.1 nM"}
